# Assay system: Bromodomain-containing protein 4 (Homo sapiens, UniProt O60885)
# Assay text: Binding affinity to recombinant BRD4 bromodomain1 (unknown origin) by isothermal titration calorimetry
Observed property: pKd
To interpret pKd, take it as minus log10 of a concentration measured in moles per litre.

Prompt: Fill in the blank: the reported pKd of `CCCOc1ccc(CCc2nc3cc(-c4c(C)noc4C)ccc3n2CCN2CCOCC2)cc1` is ____.
Completion: 4.70

---

# Assay system: ATPase family AAA domain-containing protein 2B (Homo sapiens)
# Sequence (Q9ULI0 whole entry, the tested form may be a part): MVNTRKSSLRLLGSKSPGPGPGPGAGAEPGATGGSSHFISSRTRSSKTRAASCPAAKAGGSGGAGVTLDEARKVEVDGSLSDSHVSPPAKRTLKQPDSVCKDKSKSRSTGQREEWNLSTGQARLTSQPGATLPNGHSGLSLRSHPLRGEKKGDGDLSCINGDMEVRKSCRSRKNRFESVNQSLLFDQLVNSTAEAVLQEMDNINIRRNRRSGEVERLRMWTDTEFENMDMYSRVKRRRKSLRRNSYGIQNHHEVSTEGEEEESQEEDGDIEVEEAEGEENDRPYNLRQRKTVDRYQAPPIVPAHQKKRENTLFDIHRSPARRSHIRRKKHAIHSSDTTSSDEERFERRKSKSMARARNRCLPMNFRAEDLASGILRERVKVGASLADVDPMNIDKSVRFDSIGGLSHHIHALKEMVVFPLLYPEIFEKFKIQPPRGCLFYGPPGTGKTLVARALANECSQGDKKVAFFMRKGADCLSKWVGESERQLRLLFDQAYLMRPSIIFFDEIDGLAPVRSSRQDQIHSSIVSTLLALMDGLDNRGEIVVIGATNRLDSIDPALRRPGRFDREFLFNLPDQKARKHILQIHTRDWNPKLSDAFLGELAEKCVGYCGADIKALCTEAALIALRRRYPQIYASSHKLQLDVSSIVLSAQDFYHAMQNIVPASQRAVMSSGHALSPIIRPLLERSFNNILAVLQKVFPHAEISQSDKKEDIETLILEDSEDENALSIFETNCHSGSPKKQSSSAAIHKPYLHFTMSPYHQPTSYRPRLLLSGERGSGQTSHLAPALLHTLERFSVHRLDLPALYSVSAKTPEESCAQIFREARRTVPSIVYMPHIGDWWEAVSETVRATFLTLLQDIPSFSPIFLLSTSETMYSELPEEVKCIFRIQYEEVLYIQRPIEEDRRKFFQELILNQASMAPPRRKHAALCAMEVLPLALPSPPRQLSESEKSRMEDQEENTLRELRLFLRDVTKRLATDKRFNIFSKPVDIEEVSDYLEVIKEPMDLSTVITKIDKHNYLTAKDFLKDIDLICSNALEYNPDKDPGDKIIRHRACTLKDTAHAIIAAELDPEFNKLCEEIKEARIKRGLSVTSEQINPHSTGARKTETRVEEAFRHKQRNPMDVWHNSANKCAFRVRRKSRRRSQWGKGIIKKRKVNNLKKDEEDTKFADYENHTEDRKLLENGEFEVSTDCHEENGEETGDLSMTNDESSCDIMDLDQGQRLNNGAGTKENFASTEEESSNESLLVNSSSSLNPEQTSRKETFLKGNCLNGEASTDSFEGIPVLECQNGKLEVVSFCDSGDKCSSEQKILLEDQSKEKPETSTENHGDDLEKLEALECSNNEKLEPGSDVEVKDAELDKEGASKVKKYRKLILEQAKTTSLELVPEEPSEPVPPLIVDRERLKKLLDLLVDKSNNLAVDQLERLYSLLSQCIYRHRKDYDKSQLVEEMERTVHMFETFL
# Assay text: Binding affinity to partial length human ATAD2B (Q955 to R1082) expressed in bacterial expression system by Bromoscan method
Observed property: pKd
To interpret pKd, take it as minus log10 of a concentration measured in moles per litre.

Prompt: Fill in the blank: the reported pKd of `CO[C@H]1CNC[C@@H](OCC2CCC(F)(F)CC2)[C@@H]1Nc1ncc(-c2cncc(C)c2)c2cc(C)c(=O)[nH]c12` is ____.
Completion: 9.00

---

# Assay system: Bromodomain-containing protein 4 (Homo sapiens, UniProt O60885)
# Assay text: Binding affinity to human BRD4 bromodomain1 by isothermal titration calorimetry
Observed property: Kd (µM)
The figure you give is taken to be in µM; do not add the unit.

Prompt: Fill in the blank: the reported Kd of `CCC(=O)N1CCOc2c(cc(-c3ccc(OC)c(OC)c3)cc2OC[C@H]2CCCN(C)C2)C1` is ____.
Completion: 5.59

---

# Assay system: CREB-binding protein (Homo sapiens, UniProt Q92793)
# Sequence (Q92793 whole entry, the tested form may be a part): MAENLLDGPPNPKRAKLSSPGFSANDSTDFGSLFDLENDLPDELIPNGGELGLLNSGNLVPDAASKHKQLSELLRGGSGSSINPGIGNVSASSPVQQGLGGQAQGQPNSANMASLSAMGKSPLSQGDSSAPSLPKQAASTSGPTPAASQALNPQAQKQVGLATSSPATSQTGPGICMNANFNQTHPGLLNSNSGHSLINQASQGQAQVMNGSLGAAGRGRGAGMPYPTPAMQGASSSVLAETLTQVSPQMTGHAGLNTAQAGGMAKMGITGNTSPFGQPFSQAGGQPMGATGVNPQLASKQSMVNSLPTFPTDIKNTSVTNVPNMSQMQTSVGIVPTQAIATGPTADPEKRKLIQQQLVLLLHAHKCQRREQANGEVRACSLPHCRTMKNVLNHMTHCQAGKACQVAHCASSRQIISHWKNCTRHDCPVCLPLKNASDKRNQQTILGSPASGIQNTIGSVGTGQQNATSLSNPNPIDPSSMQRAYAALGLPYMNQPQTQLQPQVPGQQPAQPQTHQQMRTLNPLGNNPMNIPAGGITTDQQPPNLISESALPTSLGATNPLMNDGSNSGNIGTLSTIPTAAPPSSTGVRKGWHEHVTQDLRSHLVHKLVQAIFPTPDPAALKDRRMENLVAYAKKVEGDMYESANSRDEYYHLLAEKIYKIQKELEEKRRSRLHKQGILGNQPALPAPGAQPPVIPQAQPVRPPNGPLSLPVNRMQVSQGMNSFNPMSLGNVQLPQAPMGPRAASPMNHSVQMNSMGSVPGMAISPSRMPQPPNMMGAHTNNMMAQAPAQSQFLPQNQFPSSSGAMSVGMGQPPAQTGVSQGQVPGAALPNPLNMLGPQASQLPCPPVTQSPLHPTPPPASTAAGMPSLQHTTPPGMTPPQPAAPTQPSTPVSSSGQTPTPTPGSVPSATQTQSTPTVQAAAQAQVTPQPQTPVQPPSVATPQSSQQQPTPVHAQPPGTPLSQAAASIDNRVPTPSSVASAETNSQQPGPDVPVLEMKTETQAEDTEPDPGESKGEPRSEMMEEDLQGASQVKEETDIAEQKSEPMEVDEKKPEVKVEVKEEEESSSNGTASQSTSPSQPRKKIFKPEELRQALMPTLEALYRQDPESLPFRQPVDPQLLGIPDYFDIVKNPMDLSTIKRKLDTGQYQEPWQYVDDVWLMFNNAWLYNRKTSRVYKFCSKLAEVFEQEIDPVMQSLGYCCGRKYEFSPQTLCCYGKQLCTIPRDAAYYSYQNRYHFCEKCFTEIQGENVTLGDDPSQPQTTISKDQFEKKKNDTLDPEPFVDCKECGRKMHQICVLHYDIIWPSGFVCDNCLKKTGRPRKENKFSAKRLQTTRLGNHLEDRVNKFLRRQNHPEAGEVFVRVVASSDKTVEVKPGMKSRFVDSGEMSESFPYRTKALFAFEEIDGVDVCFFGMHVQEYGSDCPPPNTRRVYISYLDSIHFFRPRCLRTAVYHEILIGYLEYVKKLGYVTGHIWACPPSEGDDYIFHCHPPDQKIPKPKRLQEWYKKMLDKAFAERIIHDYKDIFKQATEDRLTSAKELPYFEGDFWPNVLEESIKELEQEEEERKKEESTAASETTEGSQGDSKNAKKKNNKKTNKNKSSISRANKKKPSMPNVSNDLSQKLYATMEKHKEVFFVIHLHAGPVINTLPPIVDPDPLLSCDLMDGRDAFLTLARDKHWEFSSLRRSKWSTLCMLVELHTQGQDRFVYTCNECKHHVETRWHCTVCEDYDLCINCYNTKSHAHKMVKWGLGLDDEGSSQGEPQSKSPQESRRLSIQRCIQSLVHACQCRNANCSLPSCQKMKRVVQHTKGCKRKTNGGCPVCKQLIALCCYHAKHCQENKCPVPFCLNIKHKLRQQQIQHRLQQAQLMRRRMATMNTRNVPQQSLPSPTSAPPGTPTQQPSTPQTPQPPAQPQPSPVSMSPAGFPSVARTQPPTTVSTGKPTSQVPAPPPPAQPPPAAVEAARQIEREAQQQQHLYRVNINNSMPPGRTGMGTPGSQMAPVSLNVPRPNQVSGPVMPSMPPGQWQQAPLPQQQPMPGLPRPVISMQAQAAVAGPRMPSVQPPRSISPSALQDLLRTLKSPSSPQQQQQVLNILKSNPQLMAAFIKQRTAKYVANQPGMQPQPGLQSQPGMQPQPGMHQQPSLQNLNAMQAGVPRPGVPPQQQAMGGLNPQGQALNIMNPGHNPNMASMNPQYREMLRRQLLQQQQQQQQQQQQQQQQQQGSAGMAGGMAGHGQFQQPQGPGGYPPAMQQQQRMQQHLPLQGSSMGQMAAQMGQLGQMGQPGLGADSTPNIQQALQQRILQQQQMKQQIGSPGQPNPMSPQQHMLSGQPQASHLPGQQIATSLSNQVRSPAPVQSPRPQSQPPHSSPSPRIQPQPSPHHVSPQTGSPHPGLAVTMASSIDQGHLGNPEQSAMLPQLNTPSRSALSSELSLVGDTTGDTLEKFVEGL
# Assay text: Binding affinity to C-terminally biotinylated N-terminal His10-tagged human CBP bromodomain (R1081 to G1198 residues) expressed in Escherichia coli BL21(DE3) by isothermal titration calorimetry
pKd: −log10 of the molar value.
Observed property: pKd

Prompt: Fill in the blank: the reported pKd of `CCC(=O)N1CCOc2c(cc(-c3ccc(OC)c(OC)c3)cc2OC[C@H]2CCCN(C)C2)C1` is ____.
Completion: 6.68 to 6.82

---

# Assay system: CREB-binding protein (Homo sapiens)
# Assay text: Inhibition of CBP bromodomain (unknown origin) using H3K56Ac peptide as substrate by Alphascreen assay
Observed property: pIC50
To interpret pIC50, take it as minus log10 of a concentration measured in moles per litre.

Prompt: Which measured pIC50 belongs to CC1Nc2ccccc2NC1=O (stereo unspecified) , tested on CREB-binding protein (Homo sapiens)?
Completion: 2.72

---

# Assay system: UniProt:Q92793
# Assay text: Binding affinity to recombinant human His-tagged CBP bromodomain expressed in bacterial expression system by isothermal titration calorimetry
Observed property: Kd (nM)
The figure you give is taken to be in nM; do not add the unit.

Prompt: Fill in the blank: the reported Kd of `Cc1noc(C)c1-c1ccc2c(c1)nc(CCc1ccccc1)n2CCN1CCOCC1` is ____.
Completion: 320

---

# Assay system: Histone acetyltransferase p300 (Homo sapiens, UniProt Q09472)
# Assay text: Binding affinity to EP300 (unknown origin) by isothermal titration calorimetry
pKd: −log10 of the molar value.
Observed property: pKd

Prompt: Fill in the blank: the reported pKd of `CCC(=O)N1CCOc2c(cc(-c3ccc(OC)c(OC)c3)cc2OC[C@H]2CCCN(C)C2)C1` is ____.
Completion: 6.46 to 6.78

---

Observed property: pIC50
To interpret pIC50, take it as minus log10 of a concentration measured in moles per litre.

Prompt: Which measured pIC50 belongs to `C[C@H](Nc1nn(C)c(=O)n(C)c1=O)[C@H](c1ccc(S(=O)(=O)c2ccccc2)cc1)N(C)C` , tested on Histone acetyltransferase KAT2B (Homo sapiens)?
Completion: 7.15

---

# Assay system: Cellular tumor antigen p53 (Homo sapiens, UniProt P04637)
# Sequence (P04637 whole entry): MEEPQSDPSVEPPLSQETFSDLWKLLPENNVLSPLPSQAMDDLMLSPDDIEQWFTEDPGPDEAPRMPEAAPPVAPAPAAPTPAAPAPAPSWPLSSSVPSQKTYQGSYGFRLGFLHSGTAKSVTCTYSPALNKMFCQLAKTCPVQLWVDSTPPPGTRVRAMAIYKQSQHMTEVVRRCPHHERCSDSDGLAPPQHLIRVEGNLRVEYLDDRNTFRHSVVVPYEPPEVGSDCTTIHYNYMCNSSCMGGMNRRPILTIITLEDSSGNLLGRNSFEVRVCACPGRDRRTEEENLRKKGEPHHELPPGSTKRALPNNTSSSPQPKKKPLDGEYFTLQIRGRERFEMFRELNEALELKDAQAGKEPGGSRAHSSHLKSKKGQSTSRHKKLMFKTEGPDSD
# Assay text: Inhibition of p53-induced (unknown origin) expressed in human RKO cells assessed as reduction in p53-induced p21 activation measured after 24 hrs by luciferase reporter gene assay
Observed property: pIC50
To interpret pIC50, take it as minus log10 of a concentration measured in moles per litre.

Prompt: Fill in the blank: the reported pIC50 of `COc1ccc(CCc2nc3cc(-c4c(C)noc4C)ccc3n2C[C@H](C)N2CCOCC2)cc1Cl` is ____.
Completion: 5.81

---

# Assay system: Histone acetyltransferase p300 (Homo sapiens)
# Assay text: Binding affinity to recombinant human His-tagged EP300 expressed in bacterial expression system by isothermal titration calorimetry
Observed property: pKd
To interpret pKd, take it as minus log10 of a concentration measured in moles per litre.

Prompt: Fill in the blank: the reported pKd of `Cc1noc(C)c1-c1ccc2c(c1)nc(CCc1ccccc1)n2CCN1CCOCC1` is ____.
Completion: 6.46
